Hello, the source for this data is the supplement of paper PMC10126150, in case you need it.

Test system: ATP;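 further: ATP exposure 15 min at 22 °C before imaging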
ASSAY_SUMMARY: switch fluorescence ratio, 500 uM ATP over buffer (Cy3 cluster intensity, sum of 5 cycles each) (fold (ratio)); higher = stronger signal-on switching upon ATP binding; sequences stand for … in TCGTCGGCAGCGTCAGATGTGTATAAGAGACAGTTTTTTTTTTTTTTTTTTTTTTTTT…TC
EXPERIMENTAL_CONDITIONS: aptamer strand: ATP DNA aptamer (quencher-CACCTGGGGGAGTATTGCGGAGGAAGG + anchor), 100 nM annealed; ATP concentration: 500 uM
# if value of switch fluorescence ratio reaches 1, tag Condition met; if it stays below, tag Condition not met

Illustrative cases are given below, each with its answer.
[
  {
    "SEQ_TEXT": "GATGAGCCCT",
    "LABEL": "Condition met"
  },
  {
    "SEQ_TEXT": "CGTTTATGGT",
    "LABEL": "Condition not met"
  },
  {
    "SEQ_TEXT": "TTGGTTATAC",
    "LABEL": "Condition met"
  },
  {
    "SEQ_TEXT": "CGCTTAGTGG",
    "LABEL": "Condition met"
  },
  {
    "SEQ_TEXT": "CGCTCATCTG",
    "LABEL": "Condition not met"
  },
  {
    "SEQ_TEXT": "TGGTAGTGAC",
    "LABEL": "Condition met"
  }
]

Lookup: Is reported switch fluorescence ratio greater than or equal to 1 here: CAGAGGGAAT
Found: Condition met

Lookup: Is reported switch fluorescence ratio greater than or equal to 1 here: TTTCGCCATA
Found: Condition met

Lookup: Is reported switch fluorescence ratio greater than or equal to 1 here: AGGAGGGCGT
Found: Condition not met

Lookup: Is reported switch fluorescence ratio greater than or equal to 1 here: GGTATTGCGG
Found: Condition met

Lookup: Is reported switch fluorescence ratio greater than or equal to 1 here: TGTTGCGCTT
Found: Condition met

Lookup: Is reported switch fluorescence ratio greater than or equal to 1 here: GTGATCTAGG
Found: Condition met

Lookup: Is reported switch fluorescence ratio greater than or equal to 1 here: GGGTAGACAG
Found: Condition not met

Lookup: Is reported switch fluorescence ratio greater than or equal to 1 here: TTTTACGTTA
Found: Condition met

---

Test system: ATP;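 further: ATP exposure 15 min at 22 °C before imaging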
ASSAY_SUMMARY: switch fluorescence ratio, 500 uM ATP over buffer (Cy3 cluster intensity, sum of 5 cycles each) (fold (ratio)); higher = stronger signal-on switching upon ATP binding; sequences stand for … in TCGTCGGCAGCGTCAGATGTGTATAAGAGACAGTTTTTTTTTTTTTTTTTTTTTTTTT…TC
EXPERIMENTAL_CONDITIONS: aptamer strand: ATP DNA aptamer (quencher-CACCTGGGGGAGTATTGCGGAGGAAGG + anchor), 100 nM annealed; ATP concentration: 500 uM
ASSAY_READOUT: switch fluorescence ratio

Known results for sequences:
[
  {
    "SEQ_TEXT": "ATGGGGTTCG",
    "switch fluorescence ratio": 0.993
  },
  {
    "SEQ_TEXT": "TTCAGGGGTA",
    "switch fluorescence ratio": 1.02
  },
  {
    "SEQ_TEXT": "TTTCGGGTAG",
    "switch fluorescence ratio": 1.01
  },
  {
    "SEQ_TEXT": "TGTTAATGTG",
    "switch fluorescence ratio": 1
  },
  {
    "SEQ_TEXT": "ATACGGGTAG",
    "switch fluorescence ratio": 0.982
  }
]

Lookup: Fill in: switch fluorescence ratio of TTGTCATTTA is ___
Found: 0.992

Lookup: Fill in: switch fluorescence ratio of GAATTGTTAG is ___
Found: 0.972
